Measured Kd of individual entries
# TARGET_SYSTEM: T1, CD52 peptide #741
# T1 construct: also called CD52 peptide #741 chip
# PROCEDURE_SUMMARY: BIACORE (SPR), CD52 peptide #741 chip, preliminary constant; antibody after 2 weeks at 45C, pH 7.2 in PBS
Kindly provide the numeric value in nM only, without the unit symbol.

Some solved cases for reference:
INPUT: Any idea what its Kd is? The binder is Ab24 (antibody, human IgG1, kappa, V domains shown) VH: EVQLVESGGGLVQPGGSLRLSCAASGFPFSNYWMNWVRQAPGKGLEWVGQIRLKSNNYATHYAESVKGRFTISRDDSKNSLYLQMNSLKTEDTAVYYCTPIDYWGQGTTVTVSS VL: DIVMTQTPLSLSVTPGQPASISCKSSQSLLYSNVKTYLNWVLQKPGQSPQRLIYLVSKLDSGVPDRFSGSGSGTDFTLKISRVEAEDVGVYYCVQGSHFHTFGQGTKLEIKR
OUTPUT: 16.9

INPUT: Any idea what its Kd is? The binder is Ab14 (antibody, human IgG1, kappa, V domains shown) VH: EVQLVESGGGLVQPGGSLRLSCAASGFPFSNYWMNWVRQAPGKGLEWVGQIRLKSNNYATHYAESVKGRFTISRDDSKNSLYLQMNSLKTEDTAVYYCTPIDYWGQGTTVTVSS VL: DIVMTQTPLSLSVTPGQPASISCKSSQSLLYSNHKTYLNWVLQKPGQSPQRLIYLVSKLDSGVPDRFSGSGSGTDFTLKISRVEAEDVGVYYCVQGSHFHTFGQGTKLEIKR
OUTPUT: 8.97

In the following, a different binder is considered.
INPUT: Any idea what its Kd is? The binder is Ab26 (antibody, human IgG1, kappa, V domains shown, Humanized anti-human CD52 monoclonal antibody; made in HEK293 and in CHO cells; also called CTL; CTL1) VH: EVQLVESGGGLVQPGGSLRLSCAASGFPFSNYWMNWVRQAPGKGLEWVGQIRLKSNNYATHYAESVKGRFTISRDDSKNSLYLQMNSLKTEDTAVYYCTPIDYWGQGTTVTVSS VL: DIVMTQTPLSLSVTPGQPASISCKSSQSLLYSNGKTYLNWVLQKPGQSPQRLIYLVSKLDSGVPDRFSGSGSGTDFTLKISRVEAEDVGVYYCVQGSHFHTFGQGTKLEIKR
OUTPUT: 13.4
